Tested on: Trypanosoma cruzi
assay.method.text: Trypanocidal activity against trypomastigote stage of Trypanosoma cruzi NINOA infected in NIH mouse blood after 24 hrs by optical microscopic method
experimental.endpoint: LC50 (µg/mL)
Answers are plain numbers, in µg/mL.

# molecule, target.desc, LC50, µg/mL
rows = [
    ("CC(C)(C)c1ccc(C(O)CCCN2CCC(C(O)(c3ccccc3)c3ccccc3)CC2)cc1 (stereo not drawn)", "Trypanosoma cruzi", 16.3),
]

Okay, here is my list. What is LC50 for each of these?
1. COc1cc2nc(N3CCN(C(=O)C4COc5ccccc5O4)CC3)nc(N)c2cc1OC.CS(=O)(=O)O (stereo not drawn) [DOXAZOSIN MESYLATE]
2. NC(=O)c1cc[n+](CC2=C(C(=O)[O-])N3C(=O)[C@@H](NC(=O)[C@@H](c4ccccc4)S(=O)(=O)[O-])[C@H]3SC2)cc1.[Na+] [CEFSULODIN SODIUM]

1. 12.9
2. 16.6

The reported measurements were obtained from ChEMBL document CHEMBL4024715.
